B1: Gamma-crystallin C, residues 91 to 170; numbered along this chain, P07315 (parent)
chain: RLYEREDHKGLMMELSEDCPSIQDRFHLSEIRSLHVLEGCWVLYELPNYRGRQYLLRPQEYRRCQDWGAMDAKAGSLRRV

Variants of: B1
Assay: abundance fitness (aPCA) (normalised: wild type 0, dead -1); higher = more abundant; growth selection in yeast, the domain comes from the species named
Conditions: Homo sapiens
# abundance fitness >= -0.5 gives Condition met, anything below gives Condition not met

Below are worked cases with known answers.
1) E17Y    Condition not met
2) K73G    Condition met
3) L77A    Condition not met
4) S21M    Condition not met
5) S21T    Condition met

From here, focus on the item given below.
Query: Would you say `Q65I` shows abundance fitness at minimum -0.5?
Response: Condition met

Origin of values: the Human Domainome abundance scans (Beltran et al. 2025)
